# Assay System: Cytochrome P450 2C9 (Homo sapiens) (UniProt P11712)
# Sequence (P11712 whole entry, looked up): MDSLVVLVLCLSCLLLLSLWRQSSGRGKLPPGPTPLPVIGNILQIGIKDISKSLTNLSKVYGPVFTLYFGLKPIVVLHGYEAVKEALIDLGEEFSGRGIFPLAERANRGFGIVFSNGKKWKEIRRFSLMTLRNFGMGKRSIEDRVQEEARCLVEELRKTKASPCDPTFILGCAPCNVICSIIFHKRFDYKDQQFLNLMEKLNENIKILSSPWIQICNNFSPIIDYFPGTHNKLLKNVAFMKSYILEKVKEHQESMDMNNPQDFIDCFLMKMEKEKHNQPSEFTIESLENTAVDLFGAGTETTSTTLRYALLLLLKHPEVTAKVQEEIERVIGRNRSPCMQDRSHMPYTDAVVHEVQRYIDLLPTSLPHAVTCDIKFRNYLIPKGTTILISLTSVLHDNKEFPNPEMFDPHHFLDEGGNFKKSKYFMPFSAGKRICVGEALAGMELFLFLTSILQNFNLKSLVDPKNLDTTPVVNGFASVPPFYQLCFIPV
# Assay Summary: Cytochrome P450 Family 2 Subfamily C Member 9 (CYP2C9) small molecule antagonists: luciferase reporter qHTS assay (AID 1671198); further: nearly all actives have a fitted effect of over 50% in size
# Measurement Parameters: P450-Glo CYP2C9 enzyme assay, luciferin luminescence; series mostly up to 115 µM
Records with an inconclusive call do not appear. Activity calls are given as the source filed them. The call rests on the fitted dose curve; in most records, active means well fitted inhibition curve with a large enough effect in the repeat runs; inconclusive means weak or mixed curves; inactive means no such curve, though single readings can be large or run the other way.
Field 'call' accepts class 1 for active, class 0 for inactive

// below: answered compounds
Prompt: Hi, do you know how `Fc1ccccc1-c1ccccc1` came out in this test?
Response: class 0

Prompt: Hi, do you know how NC(CS)C(=O)O (centres undefined) came out in this test?
Response: class 0

Prompt: Hi, do you know how `Cc1ccc(N)cc1[N+](=O)[O-]` came out in this test?
Response: class 1

Prompt: Hi, do you know how `O=C(O)/C=C/c1ccc(/C=C/C(=O)O)cc1` came out in this test?
Response: class 0

Prompt: Hi, do you know how `COc1cc(C)cc(O)c1` came out in this test?
Response: class 0

***
Prompt: Hi, do you know how `OCCCCCCO` came out in this test?
Response: class 1

Prompt: Hi, do you know how `CCCC=O` came out in this test?
Response: class 0

Prompt: Hi, do you know how `COC[C@H](c1ccc(C(F)(F)F)cc1)N1CCN(C2(C)CCN(C(=O)c3c(C)ncnc3C)CC2)C[C@H]1C` came out in this test?
Response: class 0

###

# Assay Summary: qHTS assay to identify small molecule agonists of the peroxisome proliferator-activated receptor delta (PPARd) signaling pathway - cell viability counter screen (AID 743211); further: nearly all actives have a fitted effect of over 55% in size
# Measurement Parameters: PPARd-bla HEK293H viability, CellTiter-Glo luminescence, 17 h; series mostly up to 62.6 µM
Results filed as inconclusive are left out. Calls of active or inactive are those of the source. Calls come from the whole dose curve; as a rule, active = well fitted cell-killing curve with a large enough effect in the repeat runs; inconclusive = weak or mixed curves; inactive = no such curve, though single readings can be large or run the other way.
Field 'call' accepts TRUE (active), FALSE (inactive)

// below: answered compounds
Prompt: Hi, do you know how `COCCOC(=O)CC#N` came out in this test?
Response: FALSE

Prompt: Hi, do you know how `COC(=O)c1ccc(C(=O)OC)c(C(=O)OC)c1` came out in this test?
Response: FALSE

***
Prompt: Hi, do you know how `Cn1ccc2cc3c(cc21)CCN3C(=O)Nc1cccnc1` came out in this test?
Response: FALSE

Prompt: Hi, do you know how `O=C(O)c1ccccc1S` came out in this test?
Response: FALSE

Prompt: Hi, do you know how `CC1=CC(=O)CCC1` came out in this test?
Response: FALSE

Prompt: Hi, do you know how C#CC(O)C(CC)CCCC (centres undefined) came out in this test?
Response: FALSE

Prompt: Hi, do you know how `CC(C)c1ccc2oc3nc(N)c(C(=O)O)cc3c(=O)c2c1` came out in this test?
Response: FALSE

Prompt: Hi, do you know how CCCC(C)CO (centres undefined) came out in this test?
Response: FALSE

Prompt: Hi, do you know how `CCO[Si](C)(OCC)OCC` came out in this test?
Response: FALSE

Prompt: Hi, do you know how `CC1(C)SC(C)(C)SC(C)(C)S1` came out in this test?
Response: FALSE

Prompt: Hi, do you know how `CC(C)CCCCCCN` came out in this test?
Response: FALSE

Prompt: Hi, do you know how `CC(C)(O)C(=O)c1ccc(OCCO)cc1` came out in this test?
Response: FALSE

Prompt: Hi, do you know how `CN(C)C(=O)C(CCN1CCC(O)(c2ccc(Cl)cc2)CC1)(c1ccccc1)c1ccccc1` came out in this test?
Response: TRUE

Prompt: Hi, do you know how `CN(C)C(=O)Nc1ccccc1` came out in this test?
Response: FALSE
